System: A23187-induced ear edema
ASSAY COMMENT: A23187 Ear Edema Model (murine ear edema protocol)
Assay type: in vivo, mouse (male CF-1)
STUDY CONDITIONS: 100 μg/ear topical in acetone; A23187 10 μg/ear; 6 h; 6 mm punch biopsy weight
I'd appreciate it if you could supply A23187 % inhibition values for the items below.
Report only the number, with the unit % understood.

Entry under test: N#Cc1c(N)oc2c1c(Cc1ccc(F)cc1)c(O)c1ccccc12 . Its A23187 % inhibition was 58

GET /value?item= N#Cc1c(N)oc2c1c(Cc1ccccc1F)c(O)c1ccccc12 &field=A23187 % inhibition returns 71

For N#Cc1c(N)oc2c1c(Cc1ccccc1)c(O)c1ccccc12 the compound record lists A23187 % inhibition as 83

GET /value?item= COc1ccc2c(c1)c(O)c(Cc1ccccc1)c1c(C#N)c(N)oc12 &field=A23187 % inhibition returns 82
